The compounds listed here are annotated with their MIC T313I.
system: M. tuberculosis QcrB T313I mutant strain; format: cell-based, Mycobacterium tuberculosis

Worked cases, answers included:
{"COMPOUND": "CNC(=O)c1sc(N2CCOCC2)cc1OCCc1ccccc1 [Compound 21]", "MIC T313I": ">20 µM"}
{"COMPOUND": "NC(=O)c1sc(N2CCOCC2)cc1OCCc1ccc(OC(F)(F)F)cc1 [Compound 37]", "MIC T313I": "11 µM"}
{"COMPOUND": "NC(=O)c1sc(N2CCOCC2)cc1OCCc1ccccc1 [Compound 1]", "MIC T313I": "53 µM"}
{"COMPOUND": "NC(=O)c1sc(-c2ccncc2)cc1OCCc1ccccc1 [Compound 35]", "MIC T313I": ">50 µM"}

Read the next record carefully.
Item NC(=O)c1sc(N2CCOCC2)cc1OCCc1cccc(F)c1 [Compound 39] : provide MIC T313I 59 µM
